The following compounds are shown together with reported TGI values.
Test system: CAKI-1 renal
Assay: NCI tumour cell line growth inhibition, 48 h
Your answer should be a plain number; it is taken to be in µM.

Example cases with answers are listed next.
COc1cc(/C=C2\C(=O)N(Cc3ccc(Cl)cc3)c3ccccc32)cc(OC)c1OC :: 13.8
COc1cc2oc(-c3cccc(C(=O)Nc4ccc(Cl)cc4)c3)cc(=O)c2c(OC)c1OC :: 7.84

Consider now this further compound.
So what does the record say about TGI for CC(C)(CN1C(=O)C(Cl)=C(Cl)C1=O)CN1C(=O)C(Cl)=C(Cl)C1=O ?
15.9

====

The following compounds are shown together with reported GI50 values.
Test system: COLO 205 colon
Experiment: NCI tumour cell line growth inhibition, 48 h

N#CCn1c(=O)c(Oc2ccc(F)cc2F)cc2cnc(NC3CCOCC3)nc21 :: > 25000 nM
CC1CC2C3CCC4=CC(=O)C=CC4(C)C3(F)C(O)CC2(C)C1(O)C(=O)COP(=O)(O)O (stereo not given) :: > 500000 nM
CC(=O)Nc1ccc(C(=O)CCl)cc1 :: 1970 nM
C=C1C(=O)O[C@H]2[C@H]1CC/C(COC(=O)c1cc(OC)c(OC)c(OC)c1)=C\CC[C@@]1(C)O[C@@H]21 :: 1180 nM

Consider now this further compound.
So what does the record say about GI50 for CSc1ccc(C2=C(c3ccccc3)C(=O)OC2)cc1 ?
763 nM
